Entry source: paper PMC12040169

Field: viability at 28.5 h, 10 µM. Provide a value for each of the compounds that follow.
assay: in vitro
experimental.parameters: human, hela cells, % viability
Numeric only. Scale: %

Item under review: `O=C(O)c1[nH]c2ccccc2c1C(c1ccc(OC2CCCC2)cc1)c1c(C(=O)O)[nH]c2ccccc12` . Reported viability at 28.5 h, 10 µM?
85.9

Item under review: `Cc1ncsc1CCOc1nccnc1N1CCCC1` . Reported viability at 28.5 h, 10 µM?
86.5

Item under review: CC(O)c1ccc(-c2ccc(CNCCCN3CCOCC3)o2)cc1 (stereo not drawn) [CBK278178C] . Reported viability at 28.5 h, 10 µM?
95.4

Item under review: `Cc1ccccc1-c1ccc(C(=O)N2CCN(C)CC2)c(NCc2cccnc2)n1` . Reported viability at 28.5 h, 10 µM?
93.2

Item under review: OCc1cccc(-c2cncc(NC3CCC(O)CC3)n2)c1 (stereo not drawn) . Reported viability at 28.5 h, 10 µM?
102

Item under review: O=C(Nc1cccnc1N1CCNCC1)c1ccoc1 [CBK029417T] . Reported viability at 28.5 h, 10 µM?
95.4

Item under review: Cc1nc(C(Cc2ccsc2)NC(=O)c2cc[nH]n2)sc1C (stereo not drawn) . Reported viability at 28.5 h, 10 µM?
85.9

Item under review: `CN1CCN(c2ccc(NC(=O)c3ccc(OCc4ccccc4)cc3)cc2Cl)CC1` . Reported viability at 28.5 h, 10 µM?
96.2

Item under review: O=C(Cn1c(NCCCO)nc2ccccc21)c1ccc(Cl)c(Cl)c1 [CBK262905B] . Reported viability at 28.5 h, 10 µM?
94.1

* * *

assay: in vitro
experimental.parameters: human, hela cells, % viability
property.name: viability at 28.5 h, 10 µM (%)
Numeric only. Scale: %

Item under review: Cc1ccc(-c2n[nH]c(=S)n2CCC(=O)NC(C)c2ccc3c(c2)CCCC3)cc1 (centres unmarked) [CBK295666] . Reported viability at 28.5 h, 10 µM?
90.1

Item under review: Cc1ccc(-c2noc(CN3CCN(c4ccccc4)CC3)n2)cc1 [CBK265924] . Reported viability at 28.5 h, 10 µM?
101

Item under review: O=S(=O)(NCc1ccc(C(F)(F)F)cc1)c1cccs1 [CBK043744] . Reported viability at 28.5 h, 10 µM?
94.5

Item under review: O=S(=O)(N[C@H]1CO[C@H]2[C@@H]1OC[C@H]2O)c1ccc(Cl)cc1 [CBK289478] . Reported viability at 28.5 h, 10 µM?
87.7

Item under review: COc1ccc(C(=O)N2C[C@@H]3C[C@H](C2)c2ccc(-c4cccnc4)c(=O)n2C3)cc1 [CBK289182] . Reported viability at 28.5 h, 10 µM?
86.7

Item under review: O=C(O)CCc1ccc(-c2cc(N3CCN(CC(=O)N4CCCC4)CC3)ncn2)cc1 [CBK091079] . Reported viability at 28.5 h, 10 µM?
104

Item under review: Cc1cc2c(o1)CCc1sc(N(C)C(=O)C3CCCO3)nc1-2 (centres unmarked) [CBK281932] . Reported viability at 28.5 h, 10 µM?
80.3

Item under review: O=C(O)CCSc1nnc2[nH]c3ccccc3n12 [CBK265736] . Reported viability at 28.5 h, 10 µM?
108

Item under review: Cc1cc(COc2cc(N3CCCNCC3)ncn2)no1 [CBK085462] . Reported viability at 28.5 h, 10 µM?
95.4

Item under review: Cc1cc2ccccc2n2c(=O)n(CC(=O)NC3CCCC3)nc12 [CBK283884] . Reported viability at 28.5 h, 10 µM?
79.7

Item under review: Cc1nn(C)cc1C(=O)NC(Cc1ccsc1)c1cccnc1 (centres unmarked) [CBK285392] . Reported viability at 28.5 h, 10 µM?
109

Item under review: O=C([C@H]1O[C@H](CCN2CCN(c3ccccn3)CC2)CC[C@@H]1O)N1CCCC1 [CBK288730] . Reported viability at 28.5 h, 10 µM?
83.3

Item under review: Cc1ccc(-n2nnnc2SCC(=O)O)cc1 [CBK287048] . Reported viability at 28.5 h, 10 µM?
94.1

Item under review: O=C(O)C1CSC(c2cccnc2)N1 (centres unmarked) [CBK260910] . Reported viability at 28.5 h, 10 µM?
111

Item under review: CC(C)(C)c1ccc(Oc2ccc(NC(=O)CCCC(=O)O)cc2)cc1 [CBK264339] . Reported viability at 28.5 h, 10 µM?
103

Item under review: CC(C)NC(=O)c1sc2ccccc2c1C1CN(Cc2c[nH]nc2C(C)(C)C)CCO1 (centres unmarked) [CBK285535] . Reported viability at 28.5 h, 10 µM?
93.5

Item under review: Cc1ccccc1C(=O)NCCNC(=O)c1nonc1N [CBK267677] . Reported viability at 28.5 h, 10 µM?
103

Item under review: CCC(=O)N1CCCC(c2nnc(-c3cccs3)o2)C1 (centres unmarked) [CBK283060] . Reported viability at 28.5 h, 10 µM?
92

Item under review: O=C(Cc1ccccc1Cl)NCc1nnc(-c2cccs2)o1 [CBK284643] . Reported viability at 28.5 h, 10 µM?
96.4

Item under review: CS(=O)(=O)c1ccc(-c2cccc(COC3CCN(C(=O)Cc4c[nH]cn4)CC3)c2)cc1 [CBK149515] . Reported viability at 28.5 h, 10 µM?
90.9

* * *

assay: in vitro
experimental.parameters: human, hela cells, % viability
property.name: viability at 28.5 h, 10 µM
A bare number is not enough; add the unit after it.

Item under review: Cn1nc(C2CCN(C(=O)c3cccs3)CC2)c2cccnc21 [CBK284925] . Reported viability at 28.5 h, 10 µM?
82.9%

Item under review: CCCCCN1CCn2nc(CNc3cnccn3)cc2C1 [CBK306713] . Reported viability at 28.5 h, 10 µM?
77.2%

Item under review: Cc1ccc(-n2ncc3c2NC(=O)N2CCCN=C32)cc1 [CBK284416] . Reported viability at 28.5 h, 10 µM?
110%

Item under review: O=C(CSc1ccccc1)Nc1cccc(Oc2ccc3c(c2)C(=O)NC3=O)c1 [CBK266500] . Reported viability at 28.5 h, 10 µM?
113%

Item under review: Cc1cc(NC(=O)C2CCCCC2)nc2c1c(=O)oc1ccccc12 [CBK291247] . Reported viability at 28.5 h, 10 µM?
83.1%

Item under review: O=C(O)c1ccc(Nc2nc3ccccc3nc2NS(=O)(=O)c2ccc(Cl)cc2)cc1 [CBK296072] . Reported viability at 28.5 h, 10 µM?
98.5%

Item under review: CC(=O)c1ccc(OCC(=O)Nc2cnc(-c3cccc(C)c3)c(-c3ccc(N)cc3)n2)cc1 [CBK036722] . Reported viability at 28.5 h, 10 µM?
107%

Item under review: CCOc1ccc(C(C)(CC(=O)O)C(=O)O)cc1 (centres unmarked) [CBK261361] . Reported viability at 28.5 h, 10 µM?
102%

Item under review: O=C(O)c1[nH]c2ccccc2c1/C=N/Cc1ccccc1Cl [CBK294456] . Reported viability at 28.5 h, 10 µM?
98.7%

Item under review: CCn1cncc1C(=O)Nc1ccc(-n2ccnc2C(C)C)cc1 [CBK281379] . Reported viability at 28.5 h, 10 µM?
95.8%

Item under review: Fc1ccc(-n2nnnc2SCc2ccc(Cl)cc2)cc1Cl [CBK102075] . Reported viability at 28.5 h, 10 µM?
97.5%

Item under review: Cn1ccnc1C1(O)CCN(C(=O)CCc2ccccc2)CC1 [CBK283542] . Reported viability at 28.5 h, 10 µM?
92%

Item under review: COc1ccccc1-c1nccnc1NCc1ccc(OC(F)(F)F)cc1 [CBK036761] . Reported viability at 28.5 h, 10 µM?
96%

Item under review: COc1cccc(NC(=O)N[C@H]2CCN3C(=O)[C@@H](Cc4ccccc4)NC(=O)[C@H]23)c1 [CBK289230] . Reported viability at 28.5 h, 10 µM?
94.5%

Item under review: CCc1ccc(OCC(=O)O/N=C(\N)c2ccncc2)c(Br)c1 [CBK265994] . Reported viability at 28.5 h, 10 µM?
86.6%

Item under review: CC1CCCN(C(=O)CC(NC(N)=O)c2cccc(Br)c2)CC1 (centres unmarked) [CBK305804] . Reported viability at 28.5 h, 10 µM?
91.7%

Item under review: C/C=N\n1c(CO)nnc1CO [CBK034325] . Reported viability at 28.5 h, 10 µM?
86.5%

Item under review: Cc1nccn1CC1(O)CCN(C(=O)CCc2ccccc2F)CC1 [CBK284689] . Reported viability at 28.5 h, 10 µM?
96.6%

Item under review: O=C1N=C2C=CC=CN2C(=O)C1Cc1ccccc1 (centres unmarked) [CBK287874] . Reported viability at 28.5 h, 10 µM?
110%

Item under review: CSCCCNC(=O)c1ccc(-c2ccc(OC(F)(F)F)cc2)nc1 [CBK156216] . Reported viability at 28.5 h, 10 µM?
95%
